Quick record: GI50, Breast cancer cell lines.
OBSERVED_PROPERTY: GI50 (µM)

compound=COc1cc(C(=O)N2CCN(c3ccccn3)CC2)c(N)cc1OCc1ccccc1 experimental_system="Breast cancer cell lines" unit_of_measure=µM qualifier== measured=6.76
compound=COc1cc(C(=O)N2CCN(c3ncnc4ccccc34)CC2)c(N)cc1OCc1ccccc1 experimental_system="Breast cancer cell lines" unit_of_measure=µM qualifier== measured=7.08
compound=COc1cc(C(=O)N2CCN(c3ccccc3OC)CC2)c(N)cc1OCc1ccccc1 experimental_system="Breast cancer cell lines" unit_of_measure=µM qualifier== measured=3.39
compound=COc1cc(C(=O)NC2c3ccccc3-c3ccccc32)c(N)cc1OCc1ccccc1 experimental_system="Breast cancer cell lines" unit_of_measure=µM qualifier=≤ measured=0.01
compound=COc1cc(C(=O)N2CCN(c3ncccn3)CC2)c(N)cc1OCc1ccccc1 experimental_system="Breast cancer cell lines" unit_of_measure=µM qualifier== measured=6.76

* * *

- System: calf thymus (CT) DNA
- TEST: Thermal denaturation studies with duplex-form calf thymus DNA
- Assay type: binding
- RECORDED_CONDITIONS: [ANCD]/[DNA] molar ratio 1:5; CT-DNA 100 μM, ligand 20 μM; sodium phosphate buffer pH 7.00; 0 h at 37° C.
OBSERVED_PROPERTY: ΔTm (° C.) after incubation at 37° C. for 0 h

compound="COc1cc(C(=O)NC2c3ccccc3-c3ccccc32)c(N)cc1OCc1ccccc1 [Compound 8e]" experimental_system="calf thymus (CT) DNA" measured="1.9 °C"
compound="COc1cc(C(=O)N2CCN(c3ccccc3OC)CC2)c(N)cc1OCCCN1CCN(c2ccccc2OC)CC1 [Compound 11]" experimental_system="calf thymus (CT) DNA" measured="1.4 °C"
compound="COc1cc(C(=O)N2CCN(c3ccccc3OC)CC2)c(N)cc1OCc1ccccc1 [Compound 8a]" experimental_system="calf thymus (CT) DNA" measured="1.2 °C"
compound="COc1cc(C(=O)N2CCN(c3ccccn3)CC2)c(N)cc1OCc1ccccc1 [Compound 8b]" experimental_system="calf thymus (CT) DNA" measured="1.5 °C"
compound="COc1cc(C(=O)N2CCN(c3ncccn3)CC2)c(N)cc1OCc1ccccc1 [Compound 8c]" experimental_system="calf thymus (CT) DNA" measured="1.4 °C"

* * *

- System: human tumour cell lines
- TEST: In vitro anticancer activity against sixty human tumour cell lines (NCI, SRB assay)
- Type: cell-based
- RECORDED_CONDITIONS: 50% cell death; 48 h continuous drug exposure, SRB assay
List of Log10LC50 mean graph midpoint (MG_MID) values.
OBSERVED_PROPERTY: Log10LC50 mean graph midpoint (MG_MID)

compound=COc1cc(C(=O)N2CCN(c3ccccc3OC)CC2)c(N)cc1OCc1ccccc1 measured=−4.19
compound=COc1cc(C(=O)N2CCN(c3ccccn3)CC2)c(N)cc1OCc1ccccc1 measured=−4.05
compound=COc1cc(C(=O)N2CCN(c3ncnc4ccccc34)CC2)c(N)cc1OCc1ccccc1 measured=−4.62
compound=COc1cc(C(=O)NC2c3ccccc3-c3ccccc32)c(N)cc1OCc1ccccc1 measured=−4.19
compound=COc1cc(C(=O)N2CCN(c3ncccn3)CC2)c(N)cc1OCc1ccccc1 measured=−4.47

* * *

- System: calf thymus (CT) DNA
- TEST: Thermal denaturation studies with duplex-form calf thymus DNA
- Assay type: binding
- RECORDED_CONDITIONS: [ANCD]/[DNA] molar ratio 1:5; CT-DNA 100 μM, ligand 20 μM; sodium phosphate buffer pH 7.00; 0 h at 37° C.
OBSERVED_PROPERTY: ΔTm (° C.) after incubation at 37° C. for 0 h (°C)

compound=COc1cc(C(=O)N2CCN(c3ncnc4ccccc34)CC2)c(N)cc1OCc1ccccc1 unit_of_measure=°C measured=1.5
compound=COc1cc(C(=O)Nc2ccc(S(=O)(=O)c3ccc(NC(=O)c4cc(OC)c(OCc5ccccc5)cc4N)cc3)cc2)c(N)cc1OCc1ccccc1 unit_of_measure=°C measured=1.5
compound=COc1cc(C(=O)N2CCN(c3ccccc3OC)CC2)c(NC(=O)c2cnccn2)cc1OCc1ccccc1 unit_of_measure=°C measured=1.3
compound="COc1cc2c(cc1O)N=CC1CCCN1C2=O (stereo not shown) [DC-81, reference compound]" unit_of_measure=°C measured=0.3

This collection of values is drawn from patent US8309726B2.
